System name: EGFR del19/C797S (Homo sapiens, UniProt P00533, C797S/DEL746-750)
Sequence (P00533 with tags, fused parts or gaps DEL746-750/C797S): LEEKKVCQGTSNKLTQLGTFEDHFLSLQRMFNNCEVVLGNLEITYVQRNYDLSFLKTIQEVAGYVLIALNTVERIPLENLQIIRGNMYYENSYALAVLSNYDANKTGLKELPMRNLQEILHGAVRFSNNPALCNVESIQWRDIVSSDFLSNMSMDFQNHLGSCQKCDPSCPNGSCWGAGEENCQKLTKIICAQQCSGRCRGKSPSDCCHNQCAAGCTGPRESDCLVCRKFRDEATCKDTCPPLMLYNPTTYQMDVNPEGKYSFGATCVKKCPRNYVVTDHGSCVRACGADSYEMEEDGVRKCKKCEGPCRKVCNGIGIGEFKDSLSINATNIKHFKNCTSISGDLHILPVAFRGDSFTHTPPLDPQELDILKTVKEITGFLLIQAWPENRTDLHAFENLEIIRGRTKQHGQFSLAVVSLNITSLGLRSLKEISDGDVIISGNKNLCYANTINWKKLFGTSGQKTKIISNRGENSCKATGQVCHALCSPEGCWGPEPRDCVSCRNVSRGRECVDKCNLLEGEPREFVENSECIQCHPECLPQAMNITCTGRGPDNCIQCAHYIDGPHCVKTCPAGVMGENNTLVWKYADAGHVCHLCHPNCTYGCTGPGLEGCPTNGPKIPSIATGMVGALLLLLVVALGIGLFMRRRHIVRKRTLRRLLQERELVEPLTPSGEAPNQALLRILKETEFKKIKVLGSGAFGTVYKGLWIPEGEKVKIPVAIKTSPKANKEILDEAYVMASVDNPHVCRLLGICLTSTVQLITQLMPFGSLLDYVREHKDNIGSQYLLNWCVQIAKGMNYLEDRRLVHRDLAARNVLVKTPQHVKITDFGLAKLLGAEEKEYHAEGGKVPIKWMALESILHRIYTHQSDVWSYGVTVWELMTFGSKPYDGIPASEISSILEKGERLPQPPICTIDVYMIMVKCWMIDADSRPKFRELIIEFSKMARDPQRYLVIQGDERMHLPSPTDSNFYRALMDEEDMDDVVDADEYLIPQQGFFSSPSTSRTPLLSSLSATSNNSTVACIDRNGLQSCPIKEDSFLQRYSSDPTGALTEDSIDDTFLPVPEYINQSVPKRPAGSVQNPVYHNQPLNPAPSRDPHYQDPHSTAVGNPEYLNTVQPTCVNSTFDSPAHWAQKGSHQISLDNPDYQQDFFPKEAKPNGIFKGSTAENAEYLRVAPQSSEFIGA
Assay protocol: Biochemical EGFR kinase assay (Lance Ultra TR-FRET), double mutant del19/C797S
Condition set: IC50 del19/C797S (nM) 100 μM ATP, 100 μM ATP
Endpoint label: IC50 (nM)

Record excerpt, results attached:
Compound | IC50 (nM)
O=S(=O)(C1CC1)n1cc(-c2nccc(Nc3cc(N[C@H]4CC[C@@H](CO)CC4)c(-c4ccn(C5COC5)n4)cn3)n2)cn1 [Example 282] | 0.5
CC(C)(O)c1nc(-c2cnc(Nc3ccnc(-c4cnn(S(=O)(=O)C5CC5)c4)n3)cc2N[C@H]2CC[C@@H](O)CC2)cs1 [Example 76] | 0.4
O=C1CC[C@]2(CC[C@H](Nc3cc(Nc4ccnc(-c5cnn(S(=O)(=O)C6CC6)c5)n4)ncc3-c3csc(C(F)(F)F)n3)CC2)N1 [Example 52] | 0.8
CC1(CNc2cc(Nc3ccnc(-c4cnn(S(=O)(=O)C5CC5)c4)n3)ncc2-c2ccn(C(F)F)n2)CCC(O)CC1 (stereo not shown) [Example 128] | 40.8
O=S(=O)(C1CC1)n1cc(-c2nccc(Nc3cc(NC[C@H]4CC[C@@H](O)C4)c(-c4ccn(CC(F)(F)F)n4)cn3)n2)cn1 [Example 268] | 200

I. CC1(N)CCC(Oc2cc(Nc3ccnc(-c4cnn(S(=O)(=O)C5CC5)c4)n3)ncc2-c2cnn(C(F)F)c2)CC1 (stereo not shown) [Example 74]
II. Cc1nn(S(=O)(=O)N(C)C)cc1-c1nccc(Nc2cc(N[C@H]3CC[C@@](C)(O)CC3)c(-c3ccn(C(F)F)n3)cn2)n1 [Example 315]
III. Cn1ccc(-c2cnc(Nc3ccnc(-c4cnn(S(=O)(=O)C5CC5)c4)n3)cc2NCC2CCC(NCCF)CC2)n1 (stereo not shown) [Example 131]
IV. CN(CC(F)F)C(=O)[C@H]1CC[C@@H](Nc2cc(Nc3ccnc(-c4cnn(S(=O)(=O)C5CC5)c4)n3)ncc2-c2ccn(C)n2)CC1 [Example 235]
Ordering criterion: IC50; begin with the maximum. Enter labels, ranked according to the request.
I, II, IV, III
(I: 103 nM, II: 11 nM, IV: 1.1 nM, III: 0.5 nM)

a. O=S(=O)(C1CC1)n1cc(-c2nccc(Nc3cc(N[C@H]4CC[C@@H](NCCF)CC4)c(-c4ccn(C(F)F)n4)cn3)n2)cn1 [Example 9]
b. Cn1ccc(-c2cnc(Nc3ccnc(-c4cnn(S(=O)(=O)C5CC5)c4)n3)cc2NC[C@H]2CC[C@H](O)CC2)n1 [Example 47]
Parameter check: reported IC50 is higher for which label, a or b ? Answer = label.
a

a. O=S(=O)(C1CC1)n1cc(-c2nccc(Nc3cc(NCCCn4ccnc4)c(-c4ccn(C(F)F)n4)cn3)n2)cn1 [Example 41]
b. O=S(=O)(C1CC1)n1cc(-c2nccc(Nc3cc(N[C@H]4CC[C@@H](O)C4)c(-c4ccn(C(F)F)n4)cn3)n2)cn1 [Example 14]
Parameter check: reported IC50 is higher for which label, a or b ? Answer = label.
a
